Assay: self-splicing fitness, log relative to wild type (ln ratio); higher = more splicing; Tetrahymena group I intron in knt gene, E. coli kanamycin selection, DiMSum; sequences stand for … in CUCUCU…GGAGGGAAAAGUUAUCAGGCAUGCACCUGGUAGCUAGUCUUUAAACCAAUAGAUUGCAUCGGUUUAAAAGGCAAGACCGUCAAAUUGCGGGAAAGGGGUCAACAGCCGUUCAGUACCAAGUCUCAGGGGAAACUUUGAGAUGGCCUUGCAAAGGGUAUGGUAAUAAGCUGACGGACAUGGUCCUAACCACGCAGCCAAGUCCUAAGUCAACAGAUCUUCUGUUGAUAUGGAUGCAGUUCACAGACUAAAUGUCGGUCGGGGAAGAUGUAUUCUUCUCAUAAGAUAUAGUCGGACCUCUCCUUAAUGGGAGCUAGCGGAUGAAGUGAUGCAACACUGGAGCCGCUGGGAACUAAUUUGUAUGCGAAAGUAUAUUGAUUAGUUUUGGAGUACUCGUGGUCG;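 further: selection with 25 µg/mL kanamycin versus none on LB agar overnight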
Conditions: 30 °C
self-splicing fitness (ln) values by entry
outcome.measure: self-splicing fitness (ln)

- sequence.chain: "UUGUAGCAAUAUUACGACGG"
  numeric.readout: -0.599
- sequence.chain: "CCUGAGCAAUAUUACGGAGU"
  numeric.readout: -3.26
- sequence.chain: "GGUAAGCAAUAUUACGAUCG"
  numeric.readout: -0.894
- sequence.chain: "AUAUAGCAAUAUUACGACCA"
  numeric.readout: -1.05
- sequence.chain: "UUCUAGCAAUAUUACGUGUA"
  numeric.readout: -1.26
- sequence.chain: "AACAAGCAAUAUUACGAAUG"
  numeric.readout: -3
- sequence.chain: "CUAAAGCAAUAUUACGAGUC"
  numeric.readout: -4.51
- sequence.chain: "UUAGAGCAAUAUUACGGAUU"
  numeric.readout: -3.74
- sequence.chain: "CUAGAGCAAUAUUACGUGCG"
  numeric.readout: -0.299
- sequence.chain: "CGAGAGCAAUAUUACGGAGG"
  numeric.readout: -2.7
- sequence.chain: "AGCUAGCAAUAUUACGUAGG"
  numeric.readout: -3.29
- sequence.chain: "CUCAAGCAAUAUUACGUUUU"
  numeric.readout: -3.35
- sequence.chain: "GUCCAGCAAUAUUACGCCGA"
  numeric.readout: -1.78
- sequence.chain: "AUCAAGCAAUAUUACGGGCG"
  numeric.readout: -1.34
- sequence.chain: "UGACAGCAAUAUUACGCAAA"
  numeric.readout: -2.27
- sequence.chain: "GAAUAGCAAUAUUACGCUAA"
  numeric.readout: -2.59

====

Test: self-splicing fitness, log relative to wild type (ln ratio); higher = more splicing; Tetrahymena group I intron in knt gene, E. coli kanamycin selection, DiMSum; sequences stand for … in CUCUCU…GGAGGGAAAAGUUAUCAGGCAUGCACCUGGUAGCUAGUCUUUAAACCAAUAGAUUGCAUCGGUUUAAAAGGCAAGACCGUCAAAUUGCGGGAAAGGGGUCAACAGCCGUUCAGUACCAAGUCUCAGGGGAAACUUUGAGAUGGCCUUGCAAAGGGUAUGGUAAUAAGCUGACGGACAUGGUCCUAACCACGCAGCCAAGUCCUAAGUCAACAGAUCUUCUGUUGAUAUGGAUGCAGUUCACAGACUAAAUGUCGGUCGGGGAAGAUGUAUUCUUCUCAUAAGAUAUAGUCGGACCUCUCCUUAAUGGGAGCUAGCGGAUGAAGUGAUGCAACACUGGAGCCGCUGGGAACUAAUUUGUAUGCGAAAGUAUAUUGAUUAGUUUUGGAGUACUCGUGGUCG
Conditions: 37 °C
outcome.measure: self-splicing fitness (ln)

- sequence.chain: "UGACAGCAAUAUUACGACUC"
  outcome.measure: "self-splicing fitness (ln)"
  numeric.readout: -0.483
- sequence.chain: "UUCUAGCAAUAUUACGAUUU"
  outcome.measure: "self-splicing fitness (ln)"
  numeric.readout: -1.33
- sequence.chain: "CGGUAGCAAUAUUACGGGUC"
  outcome.measure: "self-splicing fitness (ln)"
  numeric.readout: -4.33
- sequence.chain: "GUCCAGCAAUAUUACGGCUU"
  outcome.measure: "self-splicing fitness (ln)"
  numeric.readout: 0.16
- sequence.chain: "AAUCAGCAAUAUUACGCCUU"
  outcome.measure: "self-splicing fitness (ln)"
  numeric.readout: 0.0213
- sequence.chain: "UACGAGCAAUAUUACGAUCA"
  outcome.measure: "self-splicing fitness (ln)"
  numeric.readout: -0.737
- sequence.chain: "CCUAAGCAAUAUUACGUCGU"
  outcome.measure: "self-splicing fitness (ln)"
  numeric.readout: -2.08
- sequence.chain: "AUCUAGCAAUAUUACGUUGG"
  outcome.measure: "self-splicing fitness (ln)"
  numeric.readout: -1.88
- sequence.chain: "CACCAGCAAUAUUACGAGAG"
  outcome.measure: "self-splicing fitness (ln)"
  numeric.readout: -0.673
- sequence.chain: "CAAGAGCAAUAUUACGAUUG"
  outcome.measure: "self-splicing fitness (ln)"
  numeric.readout: -1.86
- sequence.chain: "AGUCAGCAAUAUUACGAUCU"
  outcome.measure: "self-splicing fitness (ln)"
  numeric.readout: 0.36
- sequence.chain: "AUCCAGCAAUAUUACGGACA"
  outcome.measure: "self-splicing fitness (ln)"
  numeric.readout: -0.096
- sequence.chain: "AAUGAGCAAUAUUACGCAAU"
  outcome.measure: "self-splicing fitness (ln)"
  numeric.readout: -2.25
- sequence.chain: "ACGAAGCAAUAUUACGUUUG"
  outcome.measure: "self-splicing fitness (ln)"
  numeric.readout: -1.16
- sequence.chain: "AUAUAGCAAUAUUACGUCUU"
  outcome.measure: "self-splicing fitness (ln)"
  numeric.readout: -0.378
- sequence.chain: "CCCAAGCAAUAUUACGCACC"
  outcome.measure: "self-splicing fitness (ln)"
  numeric.readout: -2.31
